# tested system: human uPAR (uPAR-Fc) (Homo sapiens, UniProt Q03405)
# Construct: comprising amino acids Leu23-Arg303 according to UniProt entry Q03405.1; purchased R&D Systems 10378-UK-100
# Sequence (Q03405 23-303): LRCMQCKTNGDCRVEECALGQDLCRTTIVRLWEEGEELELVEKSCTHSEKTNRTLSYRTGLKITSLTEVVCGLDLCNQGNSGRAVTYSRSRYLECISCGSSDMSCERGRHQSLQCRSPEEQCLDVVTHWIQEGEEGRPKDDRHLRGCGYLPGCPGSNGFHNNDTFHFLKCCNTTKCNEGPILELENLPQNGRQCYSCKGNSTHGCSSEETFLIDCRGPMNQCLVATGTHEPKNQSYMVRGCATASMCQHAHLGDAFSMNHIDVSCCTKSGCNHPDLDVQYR
# experiment description: Surface plasmon resonance (SPR) assay, single cycle kinetics
# Assay type: binding
# experimental setup: pKD category for uPAR SPR activity assay; uPAR-Fc on Protein A-Chip, 25°C; read-out: pKD CAT (converted)
Where a SMILES comes first, the peptide text is derived from it. Bridges are numbered along the chain shown (N, C = ends). [ ]: non-standard residue; d: D form. The star is where a group is joined. DOTA = O=C(O)CN1CCN(CC(=O)O)CCN(CC(=O)*)CCN(CC(=O)O)CC1; 2Nal = N[C@@H](Cc1ccc2ccccc2c1)C(=O)O; Hyp = O=C(O)[C@@H]1C[C@@H](O)CN1; Pentanoyl(4-Me) = CC(C)CCC(=O)*; Cit = NC(=O)NCCC[C@H](N)C(=O)O; Nle = CCCC[C@H](N)C(=O)O; Api = NC1(C(=O)O)CCNCC1; Nva = CCC[C@H](N)C(=O)O; Pentanoyl = CCCCC(=O)*
Consider the following molecules; for each one, report its Kd.

Entry under test: CCCCC(=O)N[C@H]1CSSC[C@@H](C(N)=O)NC(=O)[C@H](CCC)NC(=O)[C@H]([C@@H](C)CC)NC(=O)[C@@H]2C[C@@H](O)CN2C(=O)[C@@H]2CCCN2C(=O)[C@H](Cc2ccccc2)NC(=O)[C@H](Cc2ccc3ccccc3c2)NC(=O)[C@H](CCC(N)=O)NC(=O)[C@H](CCCNC(=N)N)NC1=O [UPAR-259] (Pentanoyl-CRQ[2Nal]FP[Hyp]I[Nva]C-NH2; disulfide 1-10) . Its Kd was < 1.58 nM

Entry under test: CCCCC(=O)N[C@H]1CSSC[C@@H](C(N)=O)NC(=O)[C@H](CCC)NC(=O)[C@H]([C@@H](C)CC)NC(=O)[C@@H]2C[C@@H](O)CN2C(=O)[C@@H]2CCCN2C(=O)[C@H](Cc2ccccc2)NC(=O)[C@H](Cc2c[nH]cn2)NC(=O)[C@H](CCCCNC(=O)CN2CCN(CC(=O)O)CCN(CC(=O)O)CCN(CC(=O)O)CC2)NC(=O)[C@H](CCCNC(N)=O)NC1=O [UPAR-324] (Pentanoyl-C[Cit]K(DOTA)HFP[Hyp]I[Nva]C-NH2; disulfide 1-10) . Its Kd was < 1.58 nM

Entry under test: CCCCC(=O)N[C@H]1CSSC[C@@H](C(N)=O)NC(=O)[C@H](CCC)NC(=O)[C@H]([C@@H](C)CC)NC(=O)[C@@H]2C[C@@H](O)CN2C(=O)[C@@H]2CCCN2C(=O)[C@H](Cc2ccccc2)NC(=O)[C@H](Cc2ccc(O)cc2)NC(=O)[C@H](CCC(N)=O)NC(=O)C2(CCNCC2)NC1=O [UPAR-186] (Pentanoyl-C[Api]QYFP[Hyp]I[Nva]C-NH2; disulfide 1-10) . Its Kd was < 1.58 nM

Entry under test: CCCC[C@@H]1NC(=O)[C@H](CCC(=O)O)NC(=O)[C@@H](NC(=O)[C@H](CC(C)C)NC(=O)[C@H](CC(=O)O)NC(C)=O)CSSC[C@@H](C(N)=O)NC(=O)[C@H](CC(C)C)NC(=O)[C@H]([C@@H](C)CC)NC(=O)[C@H](C)NC(=O)[C@@H]2CCCN2C(=O)[C@H](Cc2ccccc2)NC(=O)[C@H](Cc2ccc(O)cc2)NC1=O [UPAR-239] (Ac-DLCE[Nle]YFPAILC-NH2; disulfide 3-12) . Its Kd was < 1.58 nM

Entry under test: CC[C@H](C)[C@@H]1NC(=O)[C@@H](C)NC(=O)[C@@H]2CCCN2C(=O)[C@H](Cc2ccccc2)NC(=O)[C@H](C)NC(=O)[C@H](CCC(N)=O)NC(=O)[C@H](CCCNC(N)=O)NC(=O)[C@@H](NC(=O)CCC(C)C)CSSC[C@@H](C(N)=O)NC(=O)[C@H](CC(C)C)NC1=O [UPAR-159] ({Pentanoyl(4-Me)}-C[Cit]QAFP[dA]ILC-NH2; disulfide 1-10) . Its Kd was > 100 nM

Where these numbers come from: patent EP4610269A1
